- Test system: PPARa:RXRa (NR concentration 270 nM, RXRa partner concentration 90 nM)
- Procedure summary: PBM binding z-score (relative to random genomic background probes); higher = stronger binding; sequences stand for … in GC…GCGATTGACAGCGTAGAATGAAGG

- Residues: "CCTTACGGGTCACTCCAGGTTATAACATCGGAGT"
  PBM binding z-score: 4.74
- Residues: "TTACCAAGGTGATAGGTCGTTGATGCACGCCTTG"
  PBM binding z-score: 2.84
- Residues: "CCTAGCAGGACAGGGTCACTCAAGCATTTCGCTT"
  PBM binding z-score: 3.41
- Residues: "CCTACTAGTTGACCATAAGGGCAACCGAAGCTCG"
  PBM binding z-score: 0.516
- Residues: "TTACCAATGTGAAAGGTCGTTGATGCACGCCTTG"
  PBM binding z-score: 3.26
- Residues: "TCATATAGGTCAAGGTGAAAGTCGAACGATATGA"
  PBM binding z-score: 6.15
- Residues: "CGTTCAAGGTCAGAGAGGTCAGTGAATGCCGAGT"
  PBM binding z-score: 5.27
- Residues: "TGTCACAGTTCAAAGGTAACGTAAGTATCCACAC"
  PBM binding z-score: 4.26
- Residues: "AGAACGAGGTCAATGAGTTGATAGCACGGGTGGC"
  PBM binding z-score: 5.6
- Residues: "CGTCAGAGTTCAACTAAGGTAACGTAAAGCACGC"
  PBM binding z-score: 4.78
- Residues: "CTGCCAAGGTGAACAAGGTCGTTGATTACTATTC"
  PBM binding z-score: 2.25
- Residues: "ATTTCTAGGTAACCAAGTTCAGTGAATGCCGAAC"
  PBM binding z-score: 2.16
